Task for the reader: assign each of the following molecules its reported SI.
tested on: T. gondii RH GFP tachyzoites; experiment: T. gondii RH GFP tachyzoite viability assay, 72 h continuous exposure; format: cell-based, Toxoplasma gondii; conditions: CC50/IC50, 72 h continuous exposure

Please look at the items below and tell me SI for each one, in order.
1. COc1ccc(C2CC(c3ccc(O)c(OC)c3)=NN2)cc1 (centres unmarked) [Compound 3]
2. CC(=NO)C(C)=NN=C1NC(=O)C(=Cc2ccc(O)cc2)S1 [Compound 10]

Response:
[">8.3", 10.6]

Please look at the items below and tell me SI for each one, in order.
1. CC(=N/O)/C(C)=N\N=C1/NC(=O)/C(=C/c2ccc(C#N)cc2)S1 [Compound 11]
2. COc1cc(C2=NNC(c3ccc4c(c3)OCO4)C2)ccc1O (centres unmarked) [Compound 4]
3. CC(C)(C)n1nc(-c2c[nH]c3ccccc23)c(C#N)c1-c1ccc(Br)cc1 [Compound 8]

Response:
1. 14.5
2. 42.6
3. >7.6
